Target: UniProt P54829
Sequence (P54829 whole entry): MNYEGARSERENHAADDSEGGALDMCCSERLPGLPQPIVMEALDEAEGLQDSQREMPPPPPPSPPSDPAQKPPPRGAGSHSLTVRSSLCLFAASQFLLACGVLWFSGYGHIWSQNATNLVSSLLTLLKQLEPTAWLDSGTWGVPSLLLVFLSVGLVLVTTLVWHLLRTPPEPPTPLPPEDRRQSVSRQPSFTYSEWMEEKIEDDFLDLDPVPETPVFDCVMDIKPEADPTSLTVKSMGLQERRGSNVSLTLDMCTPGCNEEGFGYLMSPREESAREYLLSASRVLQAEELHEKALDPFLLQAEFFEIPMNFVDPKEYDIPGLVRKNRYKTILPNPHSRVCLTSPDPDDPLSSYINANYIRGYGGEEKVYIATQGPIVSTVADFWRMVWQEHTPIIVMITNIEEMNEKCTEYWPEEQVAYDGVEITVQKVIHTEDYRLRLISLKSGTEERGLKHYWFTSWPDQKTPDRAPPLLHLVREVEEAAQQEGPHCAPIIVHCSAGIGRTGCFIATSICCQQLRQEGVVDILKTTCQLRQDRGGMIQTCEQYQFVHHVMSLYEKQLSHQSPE
Define the label as Criterion met when IC50 is strictly less than 20 µM and as Criterion not met in all remaining cases.

Please review the following examples before continuing.
structure_smiles=COc1ccc(Cl)cc1S(=O)(=O)Nc1ccc2oc(-c3ccc(NS(=O)(=O)c4ccc(Cl)s4)cc3)nc2c1 answer_label="Criterion met"
structure_smiles=Cc1cccc(S(=O)(=O)Nc2ccc(-c3nc4cc(NS(=O)(=O)c5cccc(C)c5)ccc4o3)cc2)c1 answer_label="Criterion met"

## Task Please state whether IC50 is below 20 µM for O=S(=O)(Nc1ccc(-c2nc3cc(NS(=O)(=O)c4cccs4)ccc3o2)cc1)c1cccs1
## Result Criterion not met

## Task Thanks! And COC(=O)c1cccc(S(=O)(=O)Nc2ccc(-c3nc4cc(NS(=O)(=O)c5cccc(C(=O)OC)c5)ccc4o3)cc2)c1 ?
## Result Criterion met

## Task Thanks! And O=S(=O)(Nc1ccc2oc(-c3ccc(NS(=O)(=O)c4cccc5nonc45)cc3)nc2c1)c1ccc(Cl)s1 ?
## Result Criterion not met

## Task Thanks! And O=S(=O)(Nc1ccc(-c2nc3cc(NS(=O)(=O)c4ccc(Cl)s4)ccc3o2)cc1)c1ccc2ccccc2c1 ?
## Result Criterion met

## Task Thanks! And COc1ccc(S(=O)(=O)Nc2ccc3oc(-c4ccc(NS(=O)(=O)c5ccc(Cl)s5)cc4)nc3c2)cc1 ?
## Result Criterion met

## Task Thanks! And COc1ccccc1S(=O)(=O)Nc1ccc(-c2nc3cc(NS(=O)(=O)c4ccccc4OC)ccc3o2)cc1 ?
## Result Criterion met

## Task Thanks! And O=c1ccc2cc(S(=O)(=O)Nc3ccc4oc(-c5ccc(NS(=O)(=O)c6ccc(Cl)s6)cc5)nc4c3)ccc2o1 ?
## Result Criterion met
